- System: K562
- assayOverview: Growth inhibition of human K562 cells
- Type: functional
- experimentalSetup: read-out: Log LC50 (the source's name) (converted)
Exercise: state measured CC50 for each of the compounds provided.

What measured CC50 goes with CCCc1cc(=O)c2c(O)c3c(OC)cc(O)cc3cc2o1 ?
> 100 µM

What measured CC50 goes with COc1cc(O)cc2cc3oc(C)cc(=O)c3c(O)c12 ?
> 100 µM

What measured CC50 goes with COc1cc(O)cc2cc3oc(C)cc(=O)c3c(OC)c12 ?
> 100 µM

What measured CC50 goes with CCCc1cc(=O)c2c(OC)c3c(OC)cc(OC)cc3cc2o1 ?
> 100 µM

What measured CC50 goes with CCCc1cc(=O)c2c(OC)c3c(OC)cc(O)c(Oc4c(O)cc(OC)c5c(OC)c6c(=O)cc(CCC)oc6cc45)c3cc2o1 ?
58.9 µM

* * *

- System: CCRF-CEM
- assayOverview: Growth inhibition of human CCRF-CEM cells
- Type: functional
readoutKind: GI50 (µM)
Reply with just the number (in µM).

What measured GI50 goes with CCCc1cc(=O)c2c(OC)c3c(OC)cc(O)c(Oc4c(O)cc(OC)c5c(OC)c6c(=O)cc(CCC)oc6cc45)c3cc2o1 ?
2.34

What measured GI50 goes with COc1cc(O)cc2cc3oc(C)cc(=O)c3c(OC)c12 ?
2.09

What measured GI50 goes with COc1cc(O)cc2cc3oc(C)cc(=O)c3c(O)c12 ?
30.2

What measured GI50 goes with CCCc1cc(=O)c2c(OC)c3c(OC)cc(OC)cc3cc2o1 ?
58.9

* * *

- Tested on: A498
- assayOverview: Growth inhibition of human A498 cells
- Format: functional
Exercise: state measured GI50 for each of the molecules provided.

What measured GI50 goes with COc1cc(O)cc2cc3oc(C)cc(=O)c3c(O)c12 ?
0.617 µM

What measured GI50 goes with COc1cc(O)cc2cc3oc(C)cc(=O)c3c(OC)c12 ?
> 100 µM

What measured GI50 goes with CCCc1cc(=O)c2c(OC)c3c(OC)cc(O)c(Oc4c(O)cc(OC)c5c(OC)c6c(=O)cc(CCC)oc6cc45)c3cc2o1 ?
18.2 µM

What measured GI50 goes with CCCc1cc(=O)c2c(OC)c3c(OC)cc(OC)cc3cc2o1 ?
3.47 µM

* * *

Exercise: state measured CC50 for each of the compounds provided.
- Tested on: SW-620
- assayOverview: Growth inhibition of human SW620 cells
- Assay type: functional
- experimentalSetup: read-out: Log LC50 (the source's name) (converted)

What measured CC50 goes with COc1cc(O)cc2cc3oc(C)cc(=O)c3c(O)c12 ?
> 100 µM

What measured CC50 goes with CCCc1cc(=O)c2c(OC)c3c(OC)cc(O)c(Oc4c(O)cc(OC)c5c(OC)c6c(=O)cc(CCC)oc6cc45)c3cc2o1 ?
61.7 µM

What measured CC50 goes with COc1cc(O)cc2cc3oc(C)cc(=O)c3c(OC)c12 ?
> 100 µM

What measured CC50 goes with CCCc1cc(=O)c2c(O)c3c(OC)cc(O)cc3cc2o1 ?
77.6 µM

What measured CC50 goes with CCCc1cc(=O)c2c(OC)c3c(OC)cc(OC)cc3cc2o1 ?
> 100 µM

* * *

Exercise: state measured GI50 for each of the compounds provided.
- System: SNB-19
- assayOverview: Growth inhibition of human SNB19 cells
- Format: functional
Reply with just the number (in µM).

Hi! What's the reported GI50 for CCCc1cc(=O)c2c(O)c3c(OC)cc(O)cc3cc2o1 on SNB-19?
32.4

Hi! What's the reported GI50 for COc1cc(O)cc2cc3oc(C)cc(=O)c3c(O)c12 on SNB-19?
32.4

Hi! What's the reported GI50 for CCCc1cc(=O)c2c(OC)c3c(OC)cc(O)c(Oc4c(O)cc(OC)c5c(OC)c6c(=O)cc(CCC)oc6cc45)c3cc2o1 on SNB-19?
15.8

* * *

- Test system: UACC-62
- assayOverview: Growth inhibition of human UACC62 cells
- Type: functional
readoutKind: LC50 (lethal concentration, 50% cell kill) (µM)
Reply with just the number (in µM).

What measured LC50 (lethal concentration, 50% cell kill) goes with CCCc1cc(=O)c2c(OC)c3c(OC)cc(O)c(Oc4c(O)cc(OC)c5c(OC)c6c(=O)cc(CCC)oc6cc45)c3cc2o1 ?
41.7

What measured LC50 (lethal concentration, 50% cell kill) goes with CCCc1cc(=O)c2c(O)c3c(OC)cc(O)cc3cc2o1 ?
57.5

* * *

- System: NCI-H460
- assayOverview: Growth inhibition of human NCI-H460 cells
- Type: functional
- experimentalSetup: read-out: Log LC50 (the source's name) (converted)
Exercise: state measured CC50 for each of the compounds provided.

What measured CC50 goes with CCCc1cc(=O)c2c(O)c3c(OC)cc(O)cc3cc2o1 ?
> 100 µM

What measured CC50 goes with CCCc1cc(=O)c2c(OC)c3c(OC)cc(OC)cc3cc2o1 ?
> 100 µM

What measured CC50 goes with CCCc1cc(=O)c2c(OC)c3c(OC)cc(O)c(Oc4c(O)cc(OC)c5c(OC)c6c(=O)cc(CCC)oc6cc45)c3cc2o1 ?
89.1 µM

What measured CC50 goes with COc1cc(O)cc2cc3oc(C)cc(=O)c3c(OC)c12 ?
> 100 µM

What measured CC50 goes with COc1cc(O)cc2cc3oc(C)cc(=O)c3c(O)c12 ?
> 100 µM

* * *

Exercise: state measured IC50 for each of the compounds provided.
- testedOn: Hypoxia inducible factors; HIF-1-alpha, HIF-2-alpha (Homo sapiens, UniProt Q16665+Q99814)
- assayOverview: Inhibition of HIF1 activation in human T47D cells by TK-luciferase assay
- Type: cell-based
Reply with just the number (in nM).

What measured IC50 goes with CCCc1cc(=O)c2c(OC)c3c(OC)cc(O)c(Oc4c(O)cc(OC)c5c(OC)c6c(=O)cc(CCC)oc6cc45)c3cc2o1 ?
7300

What measured IC50 goes with COc1cc(O)cc2cc3oc(C)cc(=O)c3c(OC)c12 ?
2900

What measured IC50 goes with CCCc1cc(=O)c2c(OC)c3c(OC)cc(O)cc3cc2o1 ?
2700

What measured IC50 goes with CCCc1cc(=O)c2c(O)cc3cc(O)cc(OC)c3c2o1 ?
3000

What measured IC50 goes with COc1cc(O)cc2cc3oc(C)cc(=O)c3c(O)c12 ?
3400

What measured IC50 goes with CCCc1cc(=O)c2c(OC)c3c(OC)cc(OC)cc3cc2o1 ?
3900

What measured IC50 goes with CCCc1cc(=O)c2c(O)c3c(OC)cc(O)cc3cc2o1 ?
1700

* * *

- Test system: ACHN
- assayOverview: Growth inhibition of human ACHN cells
- Format: functional
- experimentalSetup: read-out: Log LC50 (the source's name) (converted)
readoutKind: CC50

Hi! What's the reported CC50 for CCCc1cc(=O)c2c(OC)c3c(OC)cc(O)c(Oc4c(O)cc(OC)c5c(OC)c6c(=O)cc(CCC)oc6cc45)c3cc2o1 on ACHN?
45.7 µM

Hi! What's the reported CC50 for COc1cc(O)cc2cc3oc(C)cc(=O)c3c(OC)c12 [COMANTHERIN] on ACHN?
> 100 µM

Hi! What's the reported CC50 for COc1cc(O)cc2cc3oc(C)cc(=O)c3c(O)c12 on ACHN?
> 100 µM

Hi! What's the reported CC50 for CCCc1cc(=O)c2c(O)c3c(OC)cc(O)cc3cc2o1 on ACHN?
> 100 µM

Hi! What's the reported CC50 for CCCc1cc(=O)c2c(OC)c3c(OC)cc(OC)cc3cc2o1 on ACHN?
> 100 µM

* * *

- Test system: COLO 205
- assayOverview: Growth inhibition of human COLO205 cells
- Type: functional
- experimentalSetup: read-out: Log TGI (converted)
Exercise: state measured TGI for each of the compounds provided.

What measured TGI goes with COc1cc(O)cc2cc3oc(C)cc(=O)c3c(O)c12 ?
55 µM

What measured TGI goes with CCCc1cc(=O)c2c(OC)c3c(OC)cc(OC)cc3cc2o1 ?
> 100 µM

What measured TGI goes with CCCc1cc(=O)c2c(OC)c3c(OC)cc(O)c(Oc4c(O)cc(OC)c5c(OC)c6c(=O)cc(CCC)oc6cc45)c3cc2o1 ?
24 µM

What measured TGI goes with COc1cc(O)cc2cc3oc(C)cc(=O)c3c(OC)c12 ?
> 100 µM

What measured TGI goes with CCCc1cc(=O)c2c(O)c3c(OC)cc(O)cc3cc2o1 ?
50.1 µM
